Target: UniProt:P21917
Sequence (P21917 whole entry): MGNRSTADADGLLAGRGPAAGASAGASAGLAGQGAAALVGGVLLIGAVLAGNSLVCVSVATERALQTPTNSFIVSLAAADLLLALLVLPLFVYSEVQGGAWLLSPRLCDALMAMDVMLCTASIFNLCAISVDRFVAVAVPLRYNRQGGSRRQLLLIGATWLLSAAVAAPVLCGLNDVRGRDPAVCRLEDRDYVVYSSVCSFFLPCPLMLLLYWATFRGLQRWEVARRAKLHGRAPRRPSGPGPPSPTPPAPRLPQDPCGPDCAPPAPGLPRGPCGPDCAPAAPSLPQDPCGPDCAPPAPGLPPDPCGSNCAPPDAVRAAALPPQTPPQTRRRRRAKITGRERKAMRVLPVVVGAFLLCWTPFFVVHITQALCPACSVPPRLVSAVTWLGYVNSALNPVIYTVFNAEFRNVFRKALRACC
Assay: Radioligand binding assay, dopaminergic D4 (D4.4) receptors
Conditions: test compound 1×10^−6 M

compound	D4.4 [%] [%]
O=S(=O)(NC1CN(CCOc2cccc3c2OCCO3)C1)c1ccc(Cl)cc1	35
Cc1cccc(S(=O)(=O)NC2CN(CCOc3cccc4c3OCCO4)C2)c1	39
O=S(=O)(NC1CCN(CCOc2cccc3[nH]ccc23)CC1)c1ccccc1	31
O=S(=O)(NC1CN(CCOc2cccc3c2OCCO3)C1)c1cccc(F)c1	22
CC1(C)Cc2cccc(OCCN3CCC(NS(=O)(=O)c4ccc5ccccc5c4)CC3)c2O1	42
O=S(=O)(NC1CN(CCOc2cccc3c2OCCO3)C1)c1cccc2ccccc12	90
CC1(C)Cc2cccc(OCCN3CCC(NS(=O)(=O)c4cccc(O)c4)CC3)c2O1	69
O=S(=O)(NC1CCN(CCOc2cccc3ccccc23)C1)c1cccc(O)c1 (centres unmarked)	55

----------
Molecular target: 5-HT2A receptor (Homo sapiens)
Construct: purchased PerkinElmer
Sequence (P28223 whole entry): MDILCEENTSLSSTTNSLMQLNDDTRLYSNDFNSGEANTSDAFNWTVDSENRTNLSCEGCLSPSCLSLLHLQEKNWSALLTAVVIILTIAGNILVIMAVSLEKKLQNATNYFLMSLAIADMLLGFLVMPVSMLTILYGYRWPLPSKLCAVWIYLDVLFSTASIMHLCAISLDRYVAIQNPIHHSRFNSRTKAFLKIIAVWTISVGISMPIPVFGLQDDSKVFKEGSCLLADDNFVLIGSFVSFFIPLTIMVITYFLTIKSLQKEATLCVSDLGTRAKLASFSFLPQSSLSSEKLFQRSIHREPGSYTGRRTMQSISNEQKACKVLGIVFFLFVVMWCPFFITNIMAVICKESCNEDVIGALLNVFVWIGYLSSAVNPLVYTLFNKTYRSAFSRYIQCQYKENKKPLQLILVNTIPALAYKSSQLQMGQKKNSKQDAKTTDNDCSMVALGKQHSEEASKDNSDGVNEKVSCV
Assay: Radioligand binding assay, serotoninergic 5-HT2A receptors
Conditions: binding assay result in %, Table 5a
inhibition at 1 µM overview
measurement-type: inhibition at 1 µM (%)

compound	recorded-result
Cc1c(S(=O)(=O)NCC2CN(CCOc3cccc4c3OCCO4)C2)sc2ccc(Cl)cc12	105
CC1(C)Cc2cccc(OCCN3CCC(CNS(=O)(=O)c4ccc5ccccc5c4)C3)c2O1 (stereo not drawn)	90
O=S(=O)(NCC1CCN(CCOc2cccc3c2OCCO3)C1)c1ccc(Br)cc1 (stereo not drawn)	93
O=S(=O)(NCC1CCN(CCOc2cccc3c2OCCO3)C1)c1cccs1 (stereo not drawn)	52
O=S(=O)(NC1CCN(CCCc2c[nH]c3ccc(Cl)cc23)C1)c1cccc(F)c1 (stereo not drawn)	91
Cc1cccc(S(=O)(=O)NC2CCN(CCOc3cccc4[nH]ccc34)C2)c1 (stereo not drawn)	89
CC1(C)Cc2cccc(OCCN3CCC(NS(=O)(=O)c4ccc5ccccc5c4)C3)c2O1 (stereo not drawn)	98
O=S(=O)(NCC1CCN(CCOc2cccc3c2OCCO3)C1)c1ccc2scnc2c1 (stereo not drawn)	77
O=S(=O)(NCC1CCN(CCCc2noc3cc(F)ccc23)C1)c1ccc(F)cc1 (stereo not drawn)	89

----------
Molecular target: dopaminergic receptors D3 (Homo sapiens, UniProt P35462)
Sequence (P35462 whole entry): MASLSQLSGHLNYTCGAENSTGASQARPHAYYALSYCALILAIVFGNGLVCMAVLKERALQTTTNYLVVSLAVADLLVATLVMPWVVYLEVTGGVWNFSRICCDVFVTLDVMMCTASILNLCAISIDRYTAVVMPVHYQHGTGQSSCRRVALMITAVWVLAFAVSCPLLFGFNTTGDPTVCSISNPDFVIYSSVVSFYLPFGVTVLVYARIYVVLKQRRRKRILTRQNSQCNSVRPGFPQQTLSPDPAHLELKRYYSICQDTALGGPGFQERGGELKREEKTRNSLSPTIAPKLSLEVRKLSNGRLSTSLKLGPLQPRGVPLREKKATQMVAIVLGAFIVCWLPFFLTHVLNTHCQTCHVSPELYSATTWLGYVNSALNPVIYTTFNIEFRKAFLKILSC
Assay: Radioligand binding assay, dopaminergic D3 receptors
Settings: test compound 1×10^−6 M
The following compounds are shown together with reported inhibition at 1 µM values.

compound	inhibition at 1 µM, %
O=S(=O)(NCC1CN(CCOc2cccc3ccccc23)C1)c1ccc2ccccc2c1	100
CC1(C)Cc2cccc(OCCN3CCC(CNS(=O)(=O)c4cccc(O)c4)C3)c2O1 (centres unmarked)	55
O=S(=O)(NC1CCN(CCCc2noc3cc(F)ccc23)C1)c1ccc(-c2ccccc2)cc1 (centres unmarked)	82
O=S(=O)(NC1CCN(CCOc2cccc3[nH]ccc23)C1)c1ccccc1 (centres unmarked)	103
O=S(=O)(NC1CCN(CCCc2noc3cc(F)ccc23)CC1)c1cccc2ccccc12	58
Cc1cccc(S(=O)(=O)NC2CCN(CCCc3c[nH]c4ccc(Cl)cc34)C2)c1 (centres unmarked)	97
Cc1ccc2sc(S(=O)(=O)NC3CCN(CCCc4noc5cc(F)ccc45)C3)cc2c1 (centres unmarked)	95
Cc1cccc(S(=O)(=O)NC2CCN(CCOc3cccc4[nH]ccc34)C2)c1 (centres unmarked)	106
O=S(=O)(NC1CN(CCOc2cccc3[nH]ccc23)C1)c1ccc2ccccc2c1	104
COc1cccc(S(=O)(=O)NCC2CN(CCCc3noc4cc(F)ccc34)C2)c1	46
O=S(=O)(NCC1CN(CCOc2cccc3c2OCCO3)C1)c1cccc2ccccc12	8
O=S(=O)(NC1CCN(CCCc2noc3cc(F)ccc23)CC1)c1cc2ccccc2s1	41
Cc1c(S(=O)(=O)N[C@@H]2CCN(CCCc3noc4cc(F)ccc34)C2)sc2ccc(F)cc12	96
O=S(=O)(NCC1CCN(CCCc2noc3cc(F)ccc23)C1)c1ccc2ccccc2c1 (centres unmarked)	75
O=S(=O)(N[C@H]1CCN(CCCc2noc3cc(F)ccc23)C1)c1cc2ccc(Cl)cc2s1	88
O=S(=O)(NCC1CCN(CCOc2cccc3ccccc23)C1)c1cc2ccc(Cl)cc2s1 (centres unmarked)	89
Cc1ccc2sc(S(=O)(=O)N[C@H]3CCN(CCCc4noc5cc(F)ccc45)C3)cc2c1	93
